# Assay comment: activity coefficient (dimensionless); of the first substance listed, at infinite dilution; xn = mol fraction of the nth substance listed
# Condition set: 364.45 K; Liquid; Chromatography; x1 = 0
Value type: activity coefficient
Give a plain numeric answer without units written out.

{"Compound": "OC1CCCCC1 [cyclohexanol] + CCCC[N+](C)(C)C.O=S(=O)([N-]S(=O)(=O)C(F)(F)F)C(F)(F)F", "activity coefficient": 2.54}
{"Compound": "c1ccccc1 [benzene] + CCCC[N+](C)(C)C.O=S(=O)([N-]S(=O)(=O)C(F)(F)F)C(F)(F)F", "activity coefficient": 1.2}
{"Compound": "CCCCc1ccccc1 [butylbenzene] + CCCC[N+](C)(C)C.O=S(=O)([N-]S(=O)(=O)C(F)(F)F)C(F)(F)F", "activity coefficient": 5.31}
{"Compound": "CCCC(=O)OC [methyl butanoate] + CCCC[N+](C)(C)C.O=S(=O)([N-]S(=O)(=O)C(F)(F)F)C(F)(F)F", "activity coefficient": 1.2}

Cc1ccccc1 [toluene] + CCCC[N+](C)(C)C.O=S(=O)([N-]S(=O)(=O)C(F)(F)F)C(F)(F)F yielded activity coefficient of 1.68

So, CCCCCCO [hexan-1-ol] + CCCC[N+](C)(C)C.O=S(=O)([N-]S(=O)(=O)C(F)(F)F)C(F)(F)F ? Its activity coefficient was 3.24

---

# Assay comment: activity coefficient (dimensionless); of the first substance listed, at infinite dilution; xn = mol fraction of the nth substance listed
# Condition set: 301.75 K; Liquid; Chromatography; x1 = 0
Value type: activity coefficient
Give your answer as a number; write no unit.

Please review the following examples before continuing.
{"Compound": "CCCO [propan-1-ol] + CCCC[N+](C)(C)C.O=S(=O)([N-]S(=O)(=O)C(F)(F)F)C(F)(F)F", "activity coefficient": 2.76}
{"Compound": "CCCC=O [butanal] + CCCC[N+](C)(C)C.O=S(=O)([N-]S(=O)(=O)C(F)(F)F)C(F)(F)F", "activity coefficient": 0.84}
{"Compound": "ClC(Cl)Cl [trichloromethane] + CCCC[N+](C)(C)C.O=S(=O)([N-]S(=O)(=O)C(F)(F)F)C(F)(F)F", "activity coefficient": 1.03}

The compound listed as CC#N [acetonitrile] + CCCC[N+](C)(C)C.O=S(=O)([N-]S(=O)(=O)C(F)(F)F)C(F)(F)F shows activity coefficient equal to 0.52

Data point: CCCCC=O [pentanal] + CCCC[N+](C)(C)C.O=S(=O)([N-]S(=O)(=O)C(F)(F)F)C(F)(F)F ; activity coefficient = 1.71

---

# maps each entry to its activity coefficient
# Assay comment: activity coefficient (dimensionless); of the first substance listed, at infinite dilution; xn = mol fraction of the nth substance listed
# Condition set: 301.85 K; Liquid; Chromatography; x1 = 0
Please state the value as a number alone, without comment.

{"Compound": "CCCCCC [hexane] + CCCC[N+](C)(C)C.O=S(=O)([N-]S(=O)(=O)C(F)(F)F)C(F)(F)F", "activity coefficient": 19.4}
{"Compound": "C=CCCC [1-pentene] + CCCC[N+](C)(C)C.O=S(=O)([N-]S(=O)(=O)C(F)(F)F)C(F)(F)F", "activity coefficient": 6.06}
{"Compound": "CCCCC [pentane] + CCCC[N+](C)(C)C.O=S(=O)([N-]S(=O)(=O)C(F)(F)F)C(F)(F)F", "activity coefficient": 13.7}

Continue with the compound presented below.
Given item CC(C)=O [acetone] + CCCC[N+](C)(C)C.O=S(=O)([N-]S(=O)(=O)C(F)(F)F)C(F)(F)F , the value recorded as its activity coefficient is 0.42

Entry source: the NIST ThermoML archive (doi:10.1021/je050440b)
